# System: HT29 colon
# TEST PROTOCOL: NCI-60 one-dose screen, 48 h
# REPORTED CONDITIONS: 10 µM
About 83,000 compounds went through this panel and 20% of them were active in at least one assay; those are over-represented in the sample as a whole. Active and inactive are the calls of the source. Rule for the calls: active = growth percent below 10; inactive = the rest.
Answer with one of the outcomes active, inactive

Example entries and their recorded answers appear below.
Clc1ccc(Sc2nc(NC3CC3)nc(Sc3ccc(Cl)cc3)n2)cc1 : inactive
C=C(C(=O)c1ccccc1)C(NC(C)(C)C)c1ccccc1 (stereo not drawn) : active
O=C(Nc1ccc(OS(=O)(=O)c2ccccc2)cc1)C12CC3CC(CC(C3)C1)C2 : active

q: Tell me the assay call for CCCCCCCCCCCCCCCCCCOCC(COCCOCC[N+]1(CCCCCC(=O)[O-])CCCC1)Oc1ncccn1 (stereo not drawn) please.
a: inactive

q: Tell me the assay call for COc1ccc2c(c1)N(CCO)C1=C(C(=O)OC1)C2c1ccc(OC)c(OC)c1 (stereo not drawn) please.
a: active

q: Tell me the assay call for C=C(NC(=O)C(=C)NC(=O)c1csc(C2=NC3c4csc(n4)C4NC(=O)c5csc(n5)C(C(C)(O)C(C)O)NC(=O)C5CSC(=N5)/C(=C/C)NC(=O)C(C(C)O)NC(=O)c5csc(n5)C3(CC2)NC(=O)C(C)NC(=O)C(=C)NC(=O)C(=C)NC(=O)C(C(C)C)NC2C=Cc3c(C(C)O)cc(nc3C2O)C(=O)OC4C)n1)C(N)=O (stereo not drawn) please.
a: active

q: Tell me the assay call for "CCOC(=O)N1C/C(=C/c2ccc(OC)cc2)C(=O)/C(=C/c2ccc(OC)cc2)C1" please.
a: active

q: Tell me the assay call for "c1ccc(CO[C@H]2CO[C@H]3[C@@H]2OC[C@H]3OCc2ccccc2)cc1" please.
a: inactive
